These records show pIC50 for human LOXL2 (Homo sapiens (Human), UniProt Q9Y4K0).
pIC50: −log10 of the molar value. Where a name gives a salt, the structure may show the parent alone.
PARAMETER: pIC50

COMPOUND	REPORTED_VALUE
NCc1cc(Oc2cccc(C(=O)NCc3ccc(F)cc3)c2)nc(C(F)(F)F)c1 [Compound 1-9, hydrochloride]	> 6.52
NCc1cc(Oc2cccc(C(=O)N[C@H]3COCC[C@@H]3O)c2)nc(C(F)(F)F)c1 [Compound 1-208, hydrochloride]	> 6.52
NCc1cc(OC2CCN(C(=O)Nc3ccccc3)CC2)nc(C(F)(F)F)c1 [Compound 1-41, trifluoroacetate]	6.00 to 6.52
NCc1cc(O[C@@H]2CCN(C(=O)Nc3ccccc3)C2)nc(C(F)(F)F)c1 [Compound 1-39, trifluoroacetate]	> 6.52
Cl.NCc1cc(Oc2cccc(C(=O)N3C[C@@H](O)[C@H](F)C3)c2)nc(C(F)(F)F)c1 (stereo in doubt) [Compound 1-21, hydrochloride]	> 6.52
NCc1cc(Oc2cc(C(=O)N3C[C@@H](O)[C@H](F)C3)ccc2OCc2ccccc2)nc(C(F)(F)F)c1 (racemic)	> 6.52
CC(C)C(=O)N1CCC[C@H](Oc2cc(CN)cc(C(F)(F)F)n2)C1 [Compound 1-52, trifluoroacetate]	> 6.52
NCc1cc(Oc2cccc(C(=O)N3C[C@@H](F)[C@@H](O)C3)c2)nc(C(F)(F)F)c1 (single isomer, unassigned) [Compound 1-251, hydrochloride]	> 6.52
C#Cc1cccc(NC(=O)c2cccc(Oc3cc(CN)cc(C(F)(F)F)n3)c2)c1 [Compound 1-247, hydrochloride]	> 6.52
NCc1cc(Oc2cccc(C(=O)NC3COC3)c2)nc(C(F)(F)F)c1 [Compound 1-200, trifluoroacetate]	> 6.52
COc1cc(Oc2cc(CN)cc(C(F)(F)F)n2)cc(C(=O)N2C[C@@H](O)[C@H](F)C2)c1 (racemic) [Compound 1-232, hydrochloride]	6.00 to 6.52
NCc1cc(Oc2cccc(C(=O)N3CCC[C@H](CO)C3)c2)nc(C(F)(F)F)c1 [Compound 1-203, hydrochloride]	> 6.52
NCc1cc(Oc2cccc(C(=O)N3CCC[C@@H]3C(=O)O)c2)nc(C(F)(F)F)c1 [Compound 1-25, hydrochloride]	6.00 to 6.52
NCc1cc(Oc2cccc(C(=O)N3CC(n4cccn4)C3)c2)nc(C(F)(F)F)c1 [Compound 1-12, trifluoroacetate]	> 6.52
